B1: library; numbered along this chain (parent)
chain: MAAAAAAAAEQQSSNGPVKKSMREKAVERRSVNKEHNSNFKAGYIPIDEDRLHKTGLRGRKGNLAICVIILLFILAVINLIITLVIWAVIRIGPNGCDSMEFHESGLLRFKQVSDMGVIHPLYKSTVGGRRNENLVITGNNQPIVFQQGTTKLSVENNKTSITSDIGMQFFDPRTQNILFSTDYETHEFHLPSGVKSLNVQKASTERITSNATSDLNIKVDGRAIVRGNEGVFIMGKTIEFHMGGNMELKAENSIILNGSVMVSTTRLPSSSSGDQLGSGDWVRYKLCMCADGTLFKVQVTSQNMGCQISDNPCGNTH

- Variants of: B1
- Procedure Summary: SGCB cell-surface expression functional score (HA stain, bin4 vs bin1, normalised to synonymous) (log10 ratio); higher = more cell-surface SGCB (functional)
Class yes (1): SGCB cell-surface expression functional score (log10) at least -0.3. Class no (0): SGCB cell-surface expression functional score (log10) below -0.3.

As a guide, the following entries are already answered.
{"columns": ["Mutation String", "Category Label"],
 "data": [
  ["C314F", "no (0)"],
  ["R29Q", "yes (1)"],
  ["G43R", "yes (1)"],
  ["L191T", "no (0)"],
  ["Q201F", "yes (1)"]
]}

Ask | Is SGCB cell-surface expression functional score (log10) at least -0.3? Consider L72W
Reply | yes (1)

Ask | Repeat with T160E
Reply | no (0)

Ask | Repeat with A65E
Reply | yes (1)
